- tested.on: PD-1/PD-L1 (Homo sapiens, UniProt Q9NZQ7)
- Sequence (Q9NZQ7 19-238 limits assumed): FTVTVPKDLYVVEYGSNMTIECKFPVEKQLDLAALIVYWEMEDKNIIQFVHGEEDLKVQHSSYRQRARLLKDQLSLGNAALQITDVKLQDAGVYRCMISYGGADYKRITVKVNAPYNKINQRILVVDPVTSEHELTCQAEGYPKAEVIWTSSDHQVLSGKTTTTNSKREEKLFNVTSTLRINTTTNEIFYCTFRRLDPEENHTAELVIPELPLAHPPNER
- protocol.notes: PD-1/PD-L1 biochemical protein-protein interaction assay (ALPHA)
- run.parameters: 0.3 nM His tagged PD-L1, 2.5 nM biotinylated Fc-PD-1, 60 minutes at 25° C., read-out: IC50 PD-L1-PD-1 Alpha IC50-mono PD-L1-fcP-D1
pIC50: −log10 of the molar value.
measurement.name: pIC50

Below, 3 compounds whose answers are already recorded.
INSERT INTO results (structure_smiles_string, tested_on, measured_number) VALUES
  ('COc1nc(-c2cccc(-c3cccc4c3CC[C@@H]4Oc3ccc(CN[C@@](C)(CO)C(=O)O)c(OCc4cncc(C#N)c4)n3)c2Cl)ccc1C1=NCCN1', 'PD-1/PD-L1 (Homo sapiens, UniProt Q9NZQ7)', 10.19),
  ('COc1nc(-c2cccc(-c3cccc(COc4nc(OC)c(CNC[C@H]5CCC(=O)N5)cc4Cl)c3Cl)c2Cl)ccc1CN1CC2(CCC(=O)N2)C1', 'PD-1/PD-L1 (Homo sapiens, UniProt Q9NZQ7)', 8.82),
  ('CNC(=O)COc1nc(O[C@H]2CCc3c(-c4cccc(-c5ccc(OCCNC[C@@H](O)CC(=O)O)cc5)c4C)cccc32)ccc1CNC[C@@H](O)CC(=O)O', 'PD-1/PD-L1 (Homo sapiens, UniProt Q9NZQ7)', 8.94);

I: CC(C)(NCc1cc(Br)c(OCc2cccc(-c3cccc(-c4ccc5c(c4)C[C@@H](N)C5)c3Cl)c2Cl)nc1OCc1cncc(S(C)(=O)=O)c1)C(=O)O
II: Cc1c(COc2cc(OCc3cncc(C#N)c3)c(CNCC[C@H](O)C(=O)O)cc2Cl)cccc1-c1cccc(COc2cc(OCc3cncc(C#N)c3)c(CNCC[C@H](O)C(=O)O)cc2Cl)c1C
III: Cc1c(-c2ccc(OCCNC[C@@H](O)CC(=O)O)cc2)cccc1-c1cccc2c1CC[C@@H]2Oc1nc(OCc2cccc(C#N)c2)c(CNC[C@@H](O)CC(=O)O)cc1Br
Q: # sort list by recorded pIC50, greatest to least I would appreciate it if you listed the labels in the requested order.
A: I, III, II
